Numbers sourced from ChEMBL document CHEMBL2029344.

test: Percentage unbound in 10% mouse plasma; assay type: ADME, cell-free
Quantity: fraction unbound
Please reply with the number alone, leaving off any unit.

Here's what some known entries look like.
{"Molecule Smiles": "Cc1nc(C2CCN(C(=O)[C@@H]3C[C@@](C)(N(C)C)C[C@H]3c3ccc(F)cc3F)CC2)n(-c2cc(Cl)ccc2Cl)n1", "fraction unbound": 0.14}
{"Molecule Smiles": "C[C@]1(N)C[C@H](C(=O)N2CCC(c3ccnn3-c3ccc(F)c(Cl)c3)CC2)[C@@H](c2ccc(F)cc2F)C1", "fraction unbound": 0.061}
{"Molecule Smiles": "Cc1nc(C2CCN(C(=O)[C@@H]3C[C@@](C)(N)C[C@H]3c3ccc(F)cc3F)CC2)n(-c2ccc(F)c(Cl)c2)n1", "fraction unbound": 0.127}
{"Molecule Smiles": "Cc1nc(C2CCN(C(=O)[C@@H]3C[C@@](C)(N)C[C@H]3c3ccc(F)cc3F)CC2)n(-c2ccc(Cl)c(C)c2)n1", "fraction unbound": 0.102}
{"Molecule Smiles": "C[C@@]1(N)C[C@H](C(=O)N2CCC(c3ccnn3-c3ccc(F)c(Cl)c3)CC2)[C@@H](c2ccc(F)cc2F)C1", "fraction unbound": 0.035}

The value of fraction unbound measured for the compound `Cc1cc(C2CCN(C(=O)[C@@H]3C[C@@](C)(N)C[C@H]3c3ccc(F)cc3F)CC2)n(-c2ccc(F)c(Cl)c2)n1` turned out to be 0.036

====

target: Mus musculus; assay: Ex-vivo inhibition of po dosed mouse PrCP by FRET analysis in absence of plasma; type: functional, organism-based
Parameter pKi: see the listing below.
A value of pKi is the negative decimal logarithm of a concentration given in moles per litre.

Here's what some known entries look like.
{"Molecule Smiles": "Cc1nc(C2CCN(C(=O)[C@@H]3C[C@@](C)(N(C)C)C[C@H]3c3ccc(F)cc3F)CC2)n(-c2cc(Cl)ccc2Cl)n1", "Target Under Test": "Mus musculus", "Quantity": "pKi", "Test Value": 9.00}
{"Molecule Smiles": "Cc1nc(C2CCN(C(=O)[C@@H]3C[C@@](C)(N)C[C@H]3c3ccc(F)cc3F)CC2)n(-c2ccc(Cl)c(C)c2)n1", "Target Under Test": "Mus musculus", "Quantity": "pKi", "Test Value": 7.96}
{"Molecule Smiles": "Cc1cc(C2CCN(C(=O)[C@@H]3C[C@@](C)(N)C[C@H]3c3ccc(F)cc3F)CC2)n(-c2ccc(F)c(Cl)c2)n1", "Target Under Test": "Mus musculus", "Quantity": "pKi", "Test Value": 8.80}

Attention now turns to another entry.
The reported pKi value, Mus musculus, for `Cc1nc(C2CCN(C(=O)[C@@H]3C[C@@](C)(N(C)C)C[C@H]3c3ccc(F)cc3F)CC2)n(-c2ccc(F)c(Cl)c2)n1` reads 8.96

====

molecular target: Mus musculus; assay: Ex-vivo inhibition of po dosed mouse PrCP by FRET analysis in absence of plasma; assay type: functional, organism-based
Label Yes when Ki < 1 nM; otherwise No.

Worked set:
{"Molecule Smiles": "Cc1cc(C2CCN(C(=O)[C@@H]3C[C@@](C)(N(C)C)C[C@H]3c3ccc(F)cc3F)CC2)n(-c2cc(Cl)ccc2Cl)n1", "Label Value": "Yes"}
{"Molecule Smiles": "Cc1cc(C2CCN(C(=O)[C@@H]3C[C@](C)(N)C[C@H]3c3ccc(F)cc3F)CC2)n(-c2ccc(F)c(Cl)c2)n1", "Label Value": "No"}
{"Molecule Smiles": "C[C@@]1(N)C[C@H](C(=O)N2CCC(c3ccnn3-c3ccc(F)c(Cl)c3)CC2)[C@@H](c2ccc(F)cc2F)C1", "Label Value": "Yes"}
{"Molecule Smiles": "Cc1nc(C2CCN(C(=O)[C@@H]3C[C@@](C)(N)C[C@H]3c3ccc(F)cc3F)CC2)n(-c2cc(Cl)ccc2Cl)n1", "Label Value": "No"}
{"Molecule Smiles": "Cc1nc(C2CCN(C(=O)[C@@H]3C[C@@](C)(N(C)C)C[C@H]3c3ccc(F)cc3F)CC2)n(-c2ccc(Cl)c(C)c2)n1", "Label Value": "No"}
{"Molecule Smiles": "Cc1cc(C2CCN(C(=O)[C@@H]3C[C@@](C)(N(C)C)C[C@H]3c3ccc(F)cc3F)CC2)n(-c2ccc(F)c(Cl)c2)n1", "Label Value": "Yes"}

Bench note: check whether `Cc1nc(C2CCN(C(=O)[C@@H]3C[C@@](C)(N)C[C@H]3c3ccc(F)cc3F)CC2)n(-c2ccc(F)c(Cl)c2)n1` shows Ki below 1 nM
No
